# Test system: SF-268
# experimental.protocol: NCI tumour cell line growth inhibition, 48 h
Activity calls are given as the source filed them. Rule as the data show it: active = GI50 up to about 1.1 µM and inactive = higher.
Bench note: report the call from active, inactive

CC1=NN(c2cccc(Cl)c2)C2(C1=Cc1cccs1)C(Cl)C(=O)N2c1nc2ccccc2s1 (stereo unspecified)	inactive
O=S1(=O)[C@H](c2ccccc2)c2c(-c3ccccc3)sc(-c3ccccc3)c2[C@@H]1c1ccccc1	inactive
CCOC(=O)C(=O)Nc1c(C)cccc1C(C)(C)C	inactive
C/C=N\n1c(C)n[nH]c1=O	inactive
O=C(N/N=C1\CCc2ccccc21)N/N=C1\CCc2ccccc21	inactive
COc1ccc(N2C(=O)c3cccnc3S2(=O)=O)cc1	inactive
CN(Cc1cc(Cl)cc(Cl)c1)CC(C(=O)c1ccccc1)c1ccccc1 (stereo unspecified)	inactive
Cc1cccc(CNNC(=O)c2cc[n+]([BH2-]C#N)cc2)c1	inactive

Query block: Per the records of this test, what outcome belongs to "COC(=O)[C@H](Cc1ccccc1)NC(=O)c1ccc(CNC(=O)/C=C/c2ccc(-c3ccccc3)cc2)cc1" ?
Result block: inactive

Query block: Recorded test outcome, item "O=C1CSC(=S)N1c1ccc(F)cc1F"
Result block: inactive
